- subject-of-test: recombinant Aurora B (Homo sapiens, UniProt Q96GD4)
- Construct: purchased Invitrogen pv3970
- Sequence (Q96GD4 whole entry): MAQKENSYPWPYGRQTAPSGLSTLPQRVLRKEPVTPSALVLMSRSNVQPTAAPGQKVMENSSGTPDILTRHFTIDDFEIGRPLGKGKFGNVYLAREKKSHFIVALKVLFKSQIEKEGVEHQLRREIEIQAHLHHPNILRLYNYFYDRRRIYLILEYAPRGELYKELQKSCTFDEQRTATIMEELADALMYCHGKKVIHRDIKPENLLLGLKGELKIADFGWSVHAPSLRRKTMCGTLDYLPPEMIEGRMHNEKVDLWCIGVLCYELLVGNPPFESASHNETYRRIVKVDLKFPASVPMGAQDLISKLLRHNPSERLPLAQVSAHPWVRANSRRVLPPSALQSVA
- protocol-notes: Aurora B enzyme assay (IMAP fluorescence polarization, Tamra-PKAtide substrate)
- Assay type: biochemical
- experimental-setup: 26 nM enzyme, 50 μM ATP, 100 nM Tamra-PKAtide, 2 hours at room temperature
Please go through the items and note down their IC50.
Numbers only, in nM.

Worked examples follow.
**Q:** Complete the entry with IC50 for Cc1cc(Nc2nc(Sc3ccc(Cl)cc3)cn3c(-c4cn[nH]c4)cnc23)sn1
**A:** 612

**Q:** Complete the entry with IC50 for Cc1cc(Nc2nc(Sc3ncn[nH]3)cn3c(-c4cn[nH]c4)cnc23)sn1
**A:** 35

**Q:** Complete the entry with IC50 for Cc1cc(Nc2nc(SCC(C)O)cn3c(-c4cn[nH]c4)cnc23)sn1 (stereo not shown)
**A:** 9

Now for a further compound.
**Q:** Complete the entry with IC50 for Cc1cc(Nc2nc(Sc3ccccn3)cn3c(-c4cn[nH]c4)cnc23)sn1
**A:** 432

* * *

- subject-of-test: recombinant Aurora B (Homo sapiens, UniProt Q96GD4)
- protocol-notes: Aurora B enzyme assay (IMAP fluorescence polarization, Tamra-PKAtide substrate)
- experimental-setup: 26 nM enzyme, 50 μM ATP, 100 nM Tamra-PKAtide, 2 hours at room temperature
assay-readout: IC50 (nM)
Numbers only, in nM.

Worked examples follow.
**Q:** Complete the entry with IC50 for Cc1cc(Nc2nc(Sc3ncc[nH]3)cn3c(-c4cn[nH]c4)cnc23)sn1
**A:** 66

**Q:** Complete the entry with IC50 for Cc1cc(Nc2nc(Sc3nccs3)cn3c(-c4cn[nH]c4)cnc23)sn1
**A:** 7

**Q:** Complete the entry with IC50 for CC(=O)Nc1ccc(Sc2cn3c(-c4cn[nH]c4)cnc3c(Nc3cc(C)ns3)n2)cc1
**A:** 4

Now for a further molecule.
**Q:** Complete the entry with IC50 for COc1ccccc1Sc1cn2c(-c3cn[nH]c3)cnc2c(Nc2cc(C)ns2)n1
**A:** 24

* * *

- subject-of-test: recombinant Aurora B (Homo sapiens, UniProt Q96GD4)
- protocol-notes: Aurora B enzyme assay (IMAP fluorescence polarization, Tamra-PKAtide substrate)
- experimental-setup: 26 nM enzyme, 50 μM ATP, 100 nM Tamra-PKAtide, 2 hours at room temperature
- Experimental: An in vitro assay was developed that utilizes recombinant Aurora A or Aurora B as an enzyme source and a peptide based on PKA as the substrate. Aurora A kinase assays were performed in low protein binding 384-well plates (Corning Inc). All reagents were thawed on ice. Compounds were diluted in 100% DMSO to desirable concentrations. […] After an additional 2 hours, fluorescent polarization was measured using an Analyst AD (Molecular devices). […]
Please go through the items and note down their IC50.
One number for each entry, in nM.

**Q:** Jot down IC50 (recombinant Aurora B (Homo sapiens, UniProt Q96GD4)) of CNc1ncc(-c2cnc3c(Nc4cc(C)ns4)nc(SC)cn23)s1 .
**A:** 710

Hey, can you go through the list below and give me IC50 for every item?
1. CSc1cn2c(-c3cn[nH]c3)cnc2c(Nc2cc(C)ns2)n1
2. CSc1cn2c(-c3ccco3)cnc2c(Nc2cc(C)ns2)n1
3. Cc1cc(Nc2nc(Sc3ccncc3)cn3c(-c4cn[nH]c4)cnc23)sn1

**A:**
[11, 1320, 285]

Data origin: patent US7511040B2
